The measured values listed here are drawn from ChEMBL document CHEMBL4304755.

Tested on: Leishmania chagasi
Assay: Antileishmanial activity against amastigotes stage of Leishmania chagasi MHOM/BR/1972/LD infected in BALB/c mouse bone-marrow derived macrophages incubated for 3 days by hematoxylin-eosin staining based cell counting method
Type: functional, organism-based
Details: 72 h
measured_metric: IC50

Req: Which IC50 reading was recorded for the compound COc1ccc([Te]2(Cl)OC3(CCCCC3)/C2=C\Cl)cc1 (stereo unspecified) ?
Resp: 500 nM

* * *

Catalogue of selectivity ratio readings, one per entry.
Test: Selectivity index, ratio of CC50 for mouse J774A1 cells to IC50 for promastigote stage of Leishmania amazonensis MHOM/BR/Josefa
Assay type: toxicity
Details: read-out: Ratio CC50/IC50

For orientation, consider the following solved cases.
{"line_notation": "CC1(c2ccc([Te][Te]c3ccc(C4(C)OCCO4)cc3)cc2)OCCO1", "selectivity ratio": 194}
{"line_notation": "CC1(c2cccc([Te][Te]c3cccc(C4(C)OCCO4)c3)c2)OCCO1", "selectivity ratio": 25}
{"line_notation": "c1ccc([Te][Te]c2ccccc2)cc1", "selectivity ratio": 42}
{"line_notation": "CCCCCCCCCCCCCCCCOP(=O)([O-])OCC[N+](C)(C)C", "selectivity ratio": 3}

Req: Which selectivity ratio reading was recorded for the compound CC1(c2ccccc2[Te][Te]c2ccccc2C2(C)OCCO2)OCCO1 ?
Resp: 2

* * *

Experiment: Selectivity index, ratio of CC50 for BALB/c mouse peritoneal macrophage to IC50 for amastigotes stage of Leishmania amazonensis MHOM/BR/Josefa infected in BALB/c mouse peritoneal macrophage
Format: toxicity
Conditions: peritoneal macrophages, read-out: Ratio CC50/IC50
measured_metric: selectivity ratio

Req: Which selectivity ratio reading was recorded for the compound CC1(c2ccc([Te][Te]c3ccc(C4(C)OCCO4)cc3)cc2)OCCO1 ?
Resp: 18

Req: Can you check CCCCCCCCCCCCCCCCOP(=O)([O-])OCC[N+](C)(C)C [MILTEFOSINE] next?
Resp: 12

* * *

Assay: Cytotoxicity against BALB/c mouse peritoneal macrophages incubated for 48 hrs by MTT assay
Format: cell-based, Peritoneal macrophage
Catalogue of CC50 at 48 h readings, one per entry.
Kindly answer with a numeric value in µM, unit omitted.

{"compound": "CC1(c2ccc([Te][Te]c3ccc(C4(C)OCCO4)cc3)cc2)OCCO1", "value_reported": 8.3}

Proceed to the following item.
Req: Which CC50 at 48 h reading was recorded for the compound CCCCCCCCCCCCCCCCOP(=O)([O-])OCC[N+](C)(C)C [MILTEFOSINE] ?
Resp: 20.3
